All values here come from the Immune Epitope Database (IEDB).

molecular target: HLA-A*02:06; assay: IEDB peptide-MHC binding, purified MHC/competitive/radioactivity; filed as Kd, often an IC50 or EC50 that approximates it; bounds were set here for any values at or beyond the usual limits of such assays; conditions: source organism: Dengue virus 4 Philippines/H241/1956
measured_property: Kd (µM)

>>> data_value("KTLTGEIGAV")
0.0307

----------
molecular target: HLA-B*39:01; test: IEDB peptide-MHC binding, purified MHC/direct/fluorescence; filed as Kd, often an IC50 or EC50 that approximates it; bounds were set here for any values at or beyond the usual limits of such assays; details: source organism: Vibrio vulnificus CMCP6
measured_property: Kd

>>> data_value("IEFIEVVRL")
"≥ 20 µM"

----------
Below, each entry is listed alongside its reported pKd.
molecular target: HLA-B*07:02; assay: IEDB peptide-MHC binding, purified MHC/direct/fluorescence; filed as Kd, often an IC50 or EC50 that approximates it; bounds were set here for any values at or beyond the usual limits of such assays; conditions: source organism: Giardia lamblia ATCC 50803
pKd: −log10 of the molar value.
measured_property: pKd

>>> data_value("HSSVAGGLW")
"≤ 4.70"
>>> data_value("QLKQRDALF")
"≤ 4.70"
>>> data_value("IPRQWHPFA")
6.81
>>> data_value("LERIKANIF")
"≤ 4.70"

----------
molecular target: HLA-A*33:01; assay: IEDB peptide-MHC binding, purified MHC/competitive/radioactivity; filed as Kd, often an IC50 or EC50 that approximates it; bounds were set here for any values at or beyond the usual limits of such assays; conditions: source organism: Hepacivirus hominis
pKd: −log10 of the molar value.
measured_property: pKd

>>> data_value("RNWAHSSL")
"≤ 4.06"

----------
target: HLA-A*31:01; experiment: IEDB peptide-MHC binding, purified MHC/competitive/fluorescence; filed as Kd, often an IC50 or EC50 that approximates it; bounds were set here for any values at or beyond the usual limits of such assays; details: source organism: Mycobacterium tuberculosis variant bovis BCG str. Pasteur 1173P2
pKd: −log10 of the molar value.
measured_property: pKd

>>> data_value("GTAPPPLTR")
8.42

----------
molecular target: HLA-A*01:01; experiment: IEDB peptide-MHC binding, purified MHC/direct/fluorescence; filed as Kd, often an IC50 or EC50 that approximates it; bounds were set here for any values at or beyond the usual limits of such assays; conditions: source organism: Yersinia pestis
pKd: −log10 of the molar value.
measured_property: pKd

>>> data_value("LLIDDSFSS")
"≤ 4.70"

----------
target: HLA-A*03:01; test: IEDB peptide-MHC binding, purified MHC/competitive/fluorescence; bounds were set here for any values at or beyond the usual limits of such assays; conditions: source organism: Zaire ebolavirus
Measured IC50 values are reported for all entries that follow.
measured_property: IC50

>>> data_value("SGYYSTTIR")
"1.67 µM"
>>> data_value("LITGGRRTR")
"≥ 112 µM"

----------
target: HLA-A*68:01; experiment: IEDB peptide-MHC binding, purified MHC/competitive/radioactivity; filed as Kd, often an IC50 or EC50 that approximates it; bounds were set here for any values at or beyond the usual limits of such assays; conditions: source organism: Dengue virus 1 Brazil/97-11/1997
measured_property: Kd (µM)

>>> data_value("EATARGARR")
0.0125
